# Assay Target: zfER-α (zebrafish ER-α) (Danio rerio, UniProt P57717)
# Construct: gene esr1; coding region of receptor cDNA in Topo-pcDNA3 (Menuet et al. 2002), transiently expressed in human U251-MG glial cells; approx. 65 kDa in vitro translated
# Sequence (P57717 whole entry): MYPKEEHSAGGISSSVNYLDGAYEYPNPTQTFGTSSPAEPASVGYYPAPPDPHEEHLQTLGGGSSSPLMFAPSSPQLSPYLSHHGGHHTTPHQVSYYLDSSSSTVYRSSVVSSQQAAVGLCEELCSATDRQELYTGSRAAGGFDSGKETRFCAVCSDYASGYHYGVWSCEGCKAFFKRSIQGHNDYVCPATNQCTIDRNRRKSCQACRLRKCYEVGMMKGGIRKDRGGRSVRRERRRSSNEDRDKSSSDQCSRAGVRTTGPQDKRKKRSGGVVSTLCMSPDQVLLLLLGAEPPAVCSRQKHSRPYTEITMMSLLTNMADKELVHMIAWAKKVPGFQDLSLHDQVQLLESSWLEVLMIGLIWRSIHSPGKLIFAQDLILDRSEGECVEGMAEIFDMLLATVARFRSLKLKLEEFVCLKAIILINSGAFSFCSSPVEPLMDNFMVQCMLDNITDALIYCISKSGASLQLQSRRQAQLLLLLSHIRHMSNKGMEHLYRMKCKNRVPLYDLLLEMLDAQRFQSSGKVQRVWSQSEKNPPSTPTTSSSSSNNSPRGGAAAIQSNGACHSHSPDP
# Experiment Notes: luciferase reporter transactivation (zebrafish Aro-B promoter) in transfected U251-MG cells
# Assay type: cell-based
# Condition Description: agonist; 48 hr, 37°C, 2% charcoal/dextran FCS

- Compound: "C[C@H]1CCC[C@H](O)CCC/C=C/c2cc(O)cc(O)c2C(=O)O1 [α-Zeralenol]"
  Value Unit: "pM"
  EC50: 590

---

# Assay Target: zfER-β1 (zebrafish ER-β1) (Danio rerio, UniProt Q5PR29)
# Construct: gene esr2b; coding region of receptor cDNA in Topo-pcDNA3 (Menuet et al. 2002), transiently expressed in human U251-MG glial cells; approx. 65 kDa; ER-β1 of Menuet et al. corresponds to esr2b (esr2a is ER-β2)
# Sequence (Q5PR29 1-592): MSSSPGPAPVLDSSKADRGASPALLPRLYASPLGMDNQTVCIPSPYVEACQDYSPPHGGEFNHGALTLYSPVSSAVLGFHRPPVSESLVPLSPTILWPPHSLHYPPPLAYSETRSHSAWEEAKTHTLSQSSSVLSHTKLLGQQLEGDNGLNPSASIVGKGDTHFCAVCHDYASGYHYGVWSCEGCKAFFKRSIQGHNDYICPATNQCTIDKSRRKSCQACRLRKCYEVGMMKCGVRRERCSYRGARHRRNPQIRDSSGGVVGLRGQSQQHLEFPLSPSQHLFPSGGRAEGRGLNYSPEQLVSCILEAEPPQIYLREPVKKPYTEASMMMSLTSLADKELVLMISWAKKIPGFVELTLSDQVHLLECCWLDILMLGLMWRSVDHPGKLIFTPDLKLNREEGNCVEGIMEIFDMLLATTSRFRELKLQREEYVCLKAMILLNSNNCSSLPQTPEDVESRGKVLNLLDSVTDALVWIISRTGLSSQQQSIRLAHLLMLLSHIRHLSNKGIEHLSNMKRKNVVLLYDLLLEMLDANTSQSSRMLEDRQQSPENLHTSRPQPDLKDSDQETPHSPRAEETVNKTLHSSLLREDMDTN
# Experiment Notes: luciferase reporter transactivation (zebrafish Aro-B promoter) in transfected U251-MG cells
# Type: cell-based
# Condition Description: agonist; 48 hr, 37°C, 2% charcoal/dextran FCS

- Structure As Smiles: "C[C@H]1CCC[C@H](O)CCC/C=C/c2cc(O)cc(O)c2C(=O)O1"
  Assay Target: "zfER-β1 (zebrafish ER-β1) (Danio rerio, UniProt Q5PR29)"
  Value Unit: "pM"
  EC50: 110
